Target Or System: Mot3 (UniProt P54785)
Sequence: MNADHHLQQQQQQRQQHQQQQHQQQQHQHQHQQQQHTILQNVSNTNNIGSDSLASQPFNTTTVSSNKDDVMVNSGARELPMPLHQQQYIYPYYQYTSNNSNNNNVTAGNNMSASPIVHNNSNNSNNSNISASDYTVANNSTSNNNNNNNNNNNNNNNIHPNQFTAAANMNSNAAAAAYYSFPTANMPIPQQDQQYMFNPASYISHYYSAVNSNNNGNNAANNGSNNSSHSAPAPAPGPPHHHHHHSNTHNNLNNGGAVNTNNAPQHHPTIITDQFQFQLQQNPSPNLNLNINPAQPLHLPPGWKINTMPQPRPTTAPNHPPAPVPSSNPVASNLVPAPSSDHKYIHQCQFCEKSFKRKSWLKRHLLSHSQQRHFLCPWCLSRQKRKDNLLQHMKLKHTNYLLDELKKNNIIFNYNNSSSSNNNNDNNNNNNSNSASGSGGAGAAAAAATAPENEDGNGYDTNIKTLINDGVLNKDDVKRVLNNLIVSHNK
Test: PBM E-score (8-mer binding enrichment) (E-score (-0.5 to 0.5)); higher = stronger / more preferred TF binding
Run Parameters: protein concentration: 200 nM; construct: GST-full length
The full ranking holds about 33,000 sequences; the median of “E-score (-0.5 to 0.5)” is about -0.035, and the highest 2% start at about 0.34. The full list was thinned out, with the highest values kept by preference.
Value Kind: PBM E-score

• AACCGACA = 0.0529
• GACTAAAC = 0.0174
• CCTTGTAC = 0.272
• CCCAGGCG = -0.061
• TCCAGGCA = 0.463
• CAAGAGGA = 0.038
• CCATCTCC = -0.26
• GATTAACA = 0.338
• TGTTAACA = 0.361
• AGAGGTTA = 0.0342
• TCTATTCA = 0.165
• CCTCGTAG = 0.0397
• TACAGGAA = 0.43
• GACAGAAA = 0.0469
• AGCGTGTC = 0.205
• CTTTGTAA = 0.355
• CACAGGAC = -0.175
• GCCAGGAA = 0.124
• GGCGTGTA = 0.383
• ACCAGGCT = -0.06
• GATGGAAC = -0.0944
• AATAGGAA = 0.415
• TCCAGGAA = 0.316
• ATCAGCCC = -0.272
• CGTTAACA = 0.244
• TCCAGGGA = -0.212
• CATTAACA = 0.299
• AGCGTGTA = 0.406
• CGCTGGTC = -0.275
• ACCAAGCA = -0.0877
• CCTAGGAA = 0.018
• CAGGAGGC = -0.0461
• GGGCCCAC = -0.255
